Reported IC50 by item:
# target_desc: human IKK-β (Homo sapiens)
# Sequence (O14920 1-756): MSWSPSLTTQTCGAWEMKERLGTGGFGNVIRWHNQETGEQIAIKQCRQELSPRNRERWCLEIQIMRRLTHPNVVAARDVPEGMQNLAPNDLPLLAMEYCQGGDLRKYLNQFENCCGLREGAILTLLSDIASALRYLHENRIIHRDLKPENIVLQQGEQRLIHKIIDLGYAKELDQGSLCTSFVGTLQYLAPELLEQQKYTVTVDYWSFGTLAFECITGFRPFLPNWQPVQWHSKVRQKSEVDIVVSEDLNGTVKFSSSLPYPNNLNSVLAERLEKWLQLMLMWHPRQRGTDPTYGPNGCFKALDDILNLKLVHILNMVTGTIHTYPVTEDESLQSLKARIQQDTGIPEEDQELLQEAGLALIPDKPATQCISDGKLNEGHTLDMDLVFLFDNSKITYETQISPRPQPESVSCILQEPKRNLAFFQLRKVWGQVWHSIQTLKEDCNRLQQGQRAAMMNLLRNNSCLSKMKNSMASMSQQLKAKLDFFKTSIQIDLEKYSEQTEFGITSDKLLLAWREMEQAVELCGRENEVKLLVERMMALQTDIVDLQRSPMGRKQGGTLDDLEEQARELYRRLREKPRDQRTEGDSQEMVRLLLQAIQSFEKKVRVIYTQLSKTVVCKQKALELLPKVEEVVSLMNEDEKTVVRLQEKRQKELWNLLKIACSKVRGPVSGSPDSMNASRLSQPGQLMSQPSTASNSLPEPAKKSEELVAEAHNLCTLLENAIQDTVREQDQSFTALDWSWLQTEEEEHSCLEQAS
Counter-ions that a name gives are not always drawn.

compound="N#Cc1c(C2CCCNC2)cc(-c2c(O)cccc2OCC(=O)c2ccccc2)nc1N (centres unmarked)" observable=IC50 measured="< 0.5 µM"
compound="CS(=O)(=O)N1Cc2c(C3CCCNC3)cc(-c3c(O)cccc3OCC3CC3)nc2NC1=O (centres unmarked) [Example 24-4, hydrochloride]" observable=IC50 measured="< 0.5 µM"
compound=CCCOc1cccc(O)c1-c1cc(C2CCNCC2)c(C#N)c(N)n1 observable=IC50 measured="< 0.5 µM"
compound="CC(=O)Nc1nc(-c2c(O)cccc2OCC2CC2)cc(C2CCNCC2)c1C#N [Example 6-2, hydrochloride]" observable=IC50 measured="< 0.5 µM"
compound=CC(C)[C@H](N)c1cc(-c2ccccc2O)nc(N)c1C#N observable=IC50 measured="< 0.5 µM"
compound="O=C(NCC1CCCCC1)c1cc2c(C3CCCNC3)cc(-c3c(O)cccc3OCC3CC3)nc2[nH]c1=O (centres unmarked)" observable=IC50 measured="< 0.5 µM"

Q: // lookup IC50 for "N#Cc1c(NCCNCc2ccccc2)cc(-c2c(O)cccc2OCC2CC2)nc1N"
Ans: < 0.5 µM

Q: // repeat for N#Cc1c(C2CCCNC2)cc(-c2c(N)cccc2O)nc1N (centres unmarked) [Example 1-10, hydrochloride] and report
Ans: 2 to 10 µM

Q: Now try COC(=O)c1ccc(COc2cccc(O)c2-c2cc(C3CCCNC3)c(C#N)c(N)n2)cc1 (centres unmarked) .
Ans: < 0.5 µM

Q: Please answer likewise for CC1OC(=O)Nc2nc(-c3ccccc3O)cc(C3CCCNC3)c21 (centres unmarked) [Example 18-3, hydrochloride]
Ans: 0.5 to 2 µM

Q: Then N#Cc1c(C2CCCNC2)cc(-c2c(O)cccc2OCC2CCCCO2)nc1N (centres unmarked) ?
Ans: < 0.5 µM

Q: Queued: "O=C1Nc2nc(-c3c(O)cccc3O)cc(C3CCNCC3)c2CO1"
Ans: 0.5 to 2 µM

Q: Okay, and N#Cc1c(C2CCCNC2)cc(-c2c(O)cccc2OCc2ccc3ccccc3c2)nc1N (centres unmarked) ?
Ans: < 0.5 µM

Q: Also check CCOC(=O)c1cc2c(C3CCCNC3)cc(-c3ccccc3O)nc2[nH]c1=O (centres unmarked) [Example 25-1, hydrochloride]
Ans: < 0.5 µM

Q: Next up: Nc1nc(-c2c(O)cccc2OCC2CC2)cc(C2CCNCC2)c1Cn1ccnc1 [Example 21-2, hydrochloride]
Ans: < 0.5 µM
